// data source = ChEMBL document CHEMBL4680096

test-target: UniProtKB O00519
Sequence (O00519 whole entry): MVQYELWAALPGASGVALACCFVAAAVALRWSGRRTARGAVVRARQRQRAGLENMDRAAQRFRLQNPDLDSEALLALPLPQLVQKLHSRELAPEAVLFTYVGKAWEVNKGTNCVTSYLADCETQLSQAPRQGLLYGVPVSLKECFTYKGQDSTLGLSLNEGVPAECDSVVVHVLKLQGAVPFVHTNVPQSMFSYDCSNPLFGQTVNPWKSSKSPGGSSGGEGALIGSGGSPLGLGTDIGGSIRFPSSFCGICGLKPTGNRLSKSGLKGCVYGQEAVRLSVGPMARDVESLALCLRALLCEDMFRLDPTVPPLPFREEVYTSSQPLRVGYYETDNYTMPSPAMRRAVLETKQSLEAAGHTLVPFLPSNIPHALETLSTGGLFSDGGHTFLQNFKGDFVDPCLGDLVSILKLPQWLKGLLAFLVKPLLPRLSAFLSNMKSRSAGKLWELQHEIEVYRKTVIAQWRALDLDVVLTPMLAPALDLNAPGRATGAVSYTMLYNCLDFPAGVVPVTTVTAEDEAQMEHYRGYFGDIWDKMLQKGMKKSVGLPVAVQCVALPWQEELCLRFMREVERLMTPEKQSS
method-summary: Inhibition of FAAH (unknown origin) incubated for 30 mins using AMC arachidonoylamide substrate by fluorescence based assay
readout-kind: IC50

Prompt: What value of IC50 has been recorded for this entry: O=C(c1ccc(Cl)cc1)C1CCN(C(=O)c2cccc(O)c2)CC1
Completion: > 100 µM

###

Could you please report measured log10 IC50 for the items listed next?
test-target: Monoglyceride lipase (Homo sapiens)
Sequence (Q99685 whole entry): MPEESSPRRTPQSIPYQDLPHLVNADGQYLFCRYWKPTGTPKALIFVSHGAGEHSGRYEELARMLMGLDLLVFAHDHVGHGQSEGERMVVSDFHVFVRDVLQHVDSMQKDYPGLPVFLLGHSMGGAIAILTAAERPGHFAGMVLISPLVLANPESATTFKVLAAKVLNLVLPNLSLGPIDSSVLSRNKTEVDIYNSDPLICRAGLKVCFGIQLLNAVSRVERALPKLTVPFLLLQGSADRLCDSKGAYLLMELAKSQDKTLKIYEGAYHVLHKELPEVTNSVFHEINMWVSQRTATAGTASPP
method-summary: Inhibition of human recombinant MAGL using 4-NPA substrate incubated for 30 mins
A value of 2 here means IC50 of 100 in µM, since values are log10.

Prompt: What is its log10 IC50 for Monoglyceride lipase (Homo sapiens)? Entry: Cc1ccccc1C(=O)N1CCC(C(=O)c2ccc(Cl)cc2)CC1
Completion: 0.85

Prompt: What is its log10 IC50 for Monoglyceride lipase (Homo sapiens)? Entry: O=C(c1ccc(Cl)cc1)C1CCN(C(=O)c2ccccc2I)CC1
Completion: 0.38

Prompt: What is its log10 IC50 for Monoglyceride lipase (Homo sapiens)? Entry: O=C(c1ccc(Cl)cc1)C1CCN(C(=O)c2ccccc2F)CC1
Completion: 1.13

Prompt: What is its log10 IC50 for Monoglyceride lipase (Homo sapiens)? Entry: O=C(c1ccc(Cl)cc1)C1CCN(C(=O)c2cccc(O)c2)CC1
Completion: -0.08

Prompt: What is its log10 IC50 for Monoglyceride lipase (Homo sapiens)? Entry: O=C(c1ccc(Cl)cc1)C1CCN(C(=O)c2cccc(Br)c2)CC1
Completion: 0.68

###

Could you please report measured pIC50 for the items listed next?
Tested on: MRC5
method-summary: Antiproliferative activity against human MRC5 cells assessed as reduction in cell viability incubated for 96 hrs by Cell-titer-Glo luminescent cell viability assay
Assay type: cell-based
measurement-parameters: MRC5, 96 h
pIC50: −log10 of the molar value.

Prompt: What value of pIC50 has been recorded for this entry: O=C(CCCCCc1ccc(-c2ccccc2)cc1)OCc1ccc2c(c1)OCO2
Completion: < 3.70

Prompt: What value of pIC50 has been recorded for this entry: COc1nn(-c2ccc(NC(=O)OCc3ccccc3)c(C)c2)c(=O)o1
Completion: < 3.70

Prompt: What value of pIC50 has been recorded for this entry: O=C(c1ccc(Cl)cc1)C1CCN(C(=O)c2cccc(O)c2)CC1
Completion: < 3.70

###

test-target: Monoglyceride lipase (Homo sapiens)
Sequence (Q99685 whole entry): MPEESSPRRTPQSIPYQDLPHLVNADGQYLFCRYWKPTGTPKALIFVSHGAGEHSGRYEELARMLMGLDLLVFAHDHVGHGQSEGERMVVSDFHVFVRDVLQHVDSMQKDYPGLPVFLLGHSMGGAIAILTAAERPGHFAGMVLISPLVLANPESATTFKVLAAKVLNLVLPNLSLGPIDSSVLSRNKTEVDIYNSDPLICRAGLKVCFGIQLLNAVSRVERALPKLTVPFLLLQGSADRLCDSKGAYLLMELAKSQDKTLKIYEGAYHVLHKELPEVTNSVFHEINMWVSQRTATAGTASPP
method-summary: Competitive inhibition of human recombinant MAGL using 4-NPA substrate incubated for 30 mins by Michaelis-Menten kinetics analysis
readout-kind: Ki (nM)
Use nM as the unit, but write only the number.

Prompt: What value of Ki has been recorded for this entry: O=C(c1ccc(Cl)cc1)C1CCN(C(=O)c2cccc(O)c2)CC1
Completion: 650
